assay: Solubility in ethanol, DMSO and ethanol-Tween 80; format: physicochemical; conditions: organic solvent or mixture, Solubility in DMSO
OUTCOME_MEASURE: solubility (mg/mL)

C=C(C)[C@@H]1CC[C@]2(C(=O)OCC(N)(CO)CO)CC[C@]3(C)[C@H](CC[C@@H]4[C@@]5(C)CC[C@H](OC(C)=O)C(C)(C)[C@@H]5CC[C@]43C)[C@@H]12 [NVX-207]	250
C=C(C)[C@@H]1CC[C@]2(C(=O)O)CC[C@]3(C)[C@H](CC[C@@H]4[C@@]5(C)CC[C@H](O)C(C)(C)[C@@H]5CC[C@]43C)[C@@H]12 [betulinic acid, reference compound]	10
